Study Target: 重组人HER2蛋白的胞外区 (rHER2-ECD) (human) (UniProt P04626)
Measurement Notes: SPR (BIACORE3000), rHER2-ECD coupled to CM5 chip, antibody in flow, 25 °C
Test Readout: Kd

>>> observed_measurement("hu14C5B (antibody, V domains shown, not shown: a dimerising Fc or GST) VH: EVQLVESGGGLVQPGGSLRLSCAASGYSFTMYNINWVKQAPGKGLEWIGNLDAYYGGSNYNPKFKDKATLSRDNSKNTAYLQMNSLRAEDTAVYYCTRILWSRDFYTMDYWGQGTLVTVSS VL: DIQVTQSPSSLSASVGDRVTITCRTSQDISNYLHWYQQKPGKAPKLLIYSTSTGHSGVPSRFSGSGSGTDFTLTISSLQPEDFATYFCQQSYTLAYTFGQGTKVEIKR")
"0.242 nM"
>>> observed_measurement("m14C5B (antibody, mouse IgG1, V domains shown) VH: EVQLQQSGPELEKPGASVKISCRTSGYSFTMYNINWVKQTNGKSLEWIGNLDAYYGGSNYNPKFKDKATLTVDISSNTAFMQLWSLTSEDSAVYYCTRILWSRDFYTMDYWGRGTSVTVSS VL: DIQVTQTSSSLSASLGDRVTITCRTSQDISNYLHWYQQTPDGTVKLLIYSTSTGHSGVPSRFSGSGSGTDYSLTISNLEQEDIATYFCQQSYTLAYTFGGGTKLEIKR")
"0.295 nM"
>>> observed_measurement("hu14C5B-1 (antibody, V domains shown, not shown: a dimerising Fc or GST) VH: EVQLVESGGGLVQPGGSLRLSCAASGFTFSAYNINWVKQAPGKGLEWIGNLDPYYGGSNYNPKFKDKATLSRDNSKNTAYLQMNSLRAEDTAVYYCTRILWSRDYYTMDYWGQGTLVTVSS VL: DIQVTQSPSSLSASVGDRVTITCRTSQDISNYLHWYQQKPGKAPKLLIYSTSTAHSGVPSRFSGSGSGTDFTLTISSLQPEDFATYFCQQSYTLLYTFGQGTKVEIKR")
"8.53 nM"
